Target: MAST1, Q9Y2H9
Sequence (Q9Y2H9 962-1065): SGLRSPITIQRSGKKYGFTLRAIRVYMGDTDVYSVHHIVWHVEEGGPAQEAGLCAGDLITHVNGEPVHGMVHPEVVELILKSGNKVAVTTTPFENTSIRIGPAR
Experiment: holdup assay
Parameters: key: below the threshold = too weak to quantify, mostly under pKd 3.1 to 4
Conditions: plain residues with an end cap or a label only (N-terminal biotin on a linker: ahx)
Assign Satisfied to entries whose pKd meets or exceeds 4; assign Not satisfied to the rest.

1. QPRTWLQSPV [RTKN, Q9BST9]    Not satisfied
2. HTHSYIETHV [CNKSR2, Q8WXI2]    Satisfied
3. QDEKVKESYV [ABCA1, O95477]    Satisfied
4. QNTDDVQTSF [ACE2, Q9BYF1]    Satisfied
5. TQKFRASTAL [FRMPD1, Q5SYB0]    Satisfied

Where do the numbers come from? From paper PMC9482650.
